target.of.assay: Type-2 angiotensin II receptor (Homo sapiens); note: in other assays of this panel Not Active means under 50% inhibition at 10 µM
Sequence (P50052 whole entry): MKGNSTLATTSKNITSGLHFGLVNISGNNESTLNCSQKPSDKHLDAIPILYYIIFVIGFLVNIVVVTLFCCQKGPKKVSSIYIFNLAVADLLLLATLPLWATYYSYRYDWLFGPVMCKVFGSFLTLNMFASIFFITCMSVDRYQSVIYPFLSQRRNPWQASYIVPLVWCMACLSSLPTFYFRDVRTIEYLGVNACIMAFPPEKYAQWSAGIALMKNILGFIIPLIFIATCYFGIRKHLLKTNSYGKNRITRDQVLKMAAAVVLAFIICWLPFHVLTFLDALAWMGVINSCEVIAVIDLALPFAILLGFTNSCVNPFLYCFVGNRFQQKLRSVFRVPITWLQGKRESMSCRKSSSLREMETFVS
Assay type: cell-based
experimental.parameters: cho-k1
attribute.measured: IC50

>>> assay_result("CN(Cc1cnc2nc(N)nc(N)c2n1)c1ccc(C(=O)N[C@@H](CCC(=O)O)C(=O)O)cc1 [METHOTREXATE]")
"Not Active"
>>> assay_result("CC[C@H]1OC(=O)[C@H](C)[C@@H](O[C@H]2C[C@@](C)(OC)[C@@H](O)[C@H](C)O2)[C@H](C)[C@@H](O[C@@H]2O[C@H](C)C[C@H](N(C)C)[C@H]2O)[C@](C)(O)C[C@@H](C)CN(C)[C@H](C)[C@@H](O)[C@]1(C)O")
"Not Active"
>>> assay_result("Cc1cn([C@H]2C[C@H](N=[N+]=[N-])[C@@H](CO)O2)c(=O)[nH]c1=O")
"Not Active"

###

assay.notes: DRUGMATRIX: GABAA, Chloride Channel, TBOB radioligand binding (ligand: [3H] TBOB)
Type: cell membranes, Rattus norvegicus, Wistar, Cerebral cortex, Membrane
experimental.parameters: Not Active = under 50% inhibition at 10 µM
attribute.measured: Ki

>>> assay_result("CCC(=O)O[C@H]1[C@H](O[C@@H]2[C@@H](C)[C@H](O[C@H]3C[C@@](C)(OC)[C@@H](O)[C@H](C)O3)[C@@H](C)C(=O)O[C@H](CC)[C@@](C)(O)[C@H](O)[C@@H](C)C(=O)[C@H](C)C[C@@]2(C)O)O[C@H](C)C[C@@H]1N(C)C [ERYTHROMYCIN PROPIONATE]")
"Not Active"
>>> assay_result("CCCCCC[C@H]1C(=O)O[C@H](C)[C@H](NC(=O)c2cccc(NC=O)c2O)C(=O)O[C@@H](C)[C@@H]1OC(=O)CC(C)C [ANTIMYCIN A]")
"Not Active"

###

target.of.assay: Cytochrome P450 1A2 (Homo sapiens, UniProt P05177); note: in other assays of this panel Not Active means under 50% inhibition at 10 µM
Sequence (P05177 whole entry): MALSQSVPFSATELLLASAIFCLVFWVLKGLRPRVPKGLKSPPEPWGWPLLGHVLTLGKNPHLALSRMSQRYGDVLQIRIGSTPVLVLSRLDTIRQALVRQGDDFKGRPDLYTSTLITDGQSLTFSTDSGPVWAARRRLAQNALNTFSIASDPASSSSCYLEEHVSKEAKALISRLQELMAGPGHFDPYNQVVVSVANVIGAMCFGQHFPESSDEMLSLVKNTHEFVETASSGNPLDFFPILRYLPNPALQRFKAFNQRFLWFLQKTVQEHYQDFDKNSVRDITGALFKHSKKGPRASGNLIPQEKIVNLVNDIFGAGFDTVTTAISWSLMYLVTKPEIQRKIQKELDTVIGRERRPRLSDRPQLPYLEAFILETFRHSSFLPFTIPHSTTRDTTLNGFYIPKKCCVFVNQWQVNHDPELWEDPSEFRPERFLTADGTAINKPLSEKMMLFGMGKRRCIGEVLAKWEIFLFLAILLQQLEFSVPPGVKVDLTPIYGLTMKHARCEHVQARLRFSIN
experimental.parameters: bti-tn-5b1-4
attribute.measured: Ki

>>> assay_result("O=C(O)C(Cl)(Cl)Cl [TRICHLOROACETIC ACID]")
"Not Active"
>>> assay_result("O=P1(N(CCCl)CCCl)NCCCO1 (stereo not given) [CYCLOPHOSPHAMIDE ANHYDROUS]")
"Not Active"
>>> assay_result("CN(Cc1cnc2nc(N)nc(N)c2n1)c1ccc(C(=O)N[C@@H](CCC(=O)O)C(=O)O)cc1 [METHOTREXATE]")
"Not Active"
>>> assay_result("CO[C@@]1(NC(=O)CSCC#N)C(=O)N2C(C(=O)O)=C(CSc3nnnn3C)CS[C@@H]21 [CEFMETAZOLE]")
"Not Active"
>>> assay_result("CCN[C@@H](C)Cc1cccc(C(F)(F)F)c1 [DEXFENFLURAMINE]")
"Not Active"

###

target.of.assay: Sodium-dependent dopamine transporter (Homo sapiens, UniProt Q01959)
Sequence (Q01959 whole entry): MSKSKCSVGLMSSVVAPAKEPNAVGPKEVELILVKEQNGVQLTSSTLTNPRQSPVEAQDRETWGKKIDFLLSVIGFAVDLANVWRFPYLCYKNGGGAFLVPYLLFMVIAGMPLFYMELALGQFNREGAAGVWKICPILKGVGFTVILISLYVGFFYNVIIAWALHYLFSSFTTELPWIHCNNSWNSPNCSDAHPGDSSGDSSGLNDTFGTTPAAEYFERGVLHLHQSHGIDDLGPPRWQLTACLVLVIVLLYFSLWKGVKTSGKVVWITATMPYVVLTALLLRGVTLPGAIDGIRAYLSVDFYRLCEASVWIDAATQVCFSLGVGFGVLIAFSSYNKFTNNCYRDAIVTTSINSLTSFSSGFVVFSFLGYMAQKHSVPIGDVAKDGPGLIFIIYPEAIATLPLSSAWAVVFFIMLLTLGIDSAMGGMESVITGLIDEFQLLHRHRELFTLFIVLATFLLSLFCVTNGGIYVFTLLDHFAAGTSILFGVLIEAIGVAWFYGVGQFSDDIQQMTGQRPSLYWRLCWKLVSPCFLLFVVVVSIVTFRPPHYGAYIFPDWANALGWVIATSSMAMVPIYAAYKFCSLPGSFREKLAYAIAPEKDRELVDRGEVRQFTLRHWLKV
assay.notes: DRUGMATRIX: Dopamine Transporter radioligand binding (ligand: [125I] RTI-55)
Assay type: cell membranes, CHO-K1, Membrane
experimental.parameters: cho-k1; Not Active = under 50% inhibition at 10 µM
attribute.measured: IC50

>>> assay_result("CCOC(=O)C1=C(C)NC(C)=C(C(=O)OC)C1c1cccc(Cl)c1Cl (stereo not drawn)")
"Not Active"
>>> assay_result("Nc1nc(Cl)nc2c1ncn2[C@H]1C[C@H](O)[C@@H](CO)O1")
"Not Active"
>>> assay_result("CC(=O)Nc1nnc(S(N)(=O)=O)s1 [ACETAZOLAMIDE]")
"Not Active"

###

target.of.assay: Kappa-type opioid receptor (Homo sapiens)
Sequence (P41145 whole entry): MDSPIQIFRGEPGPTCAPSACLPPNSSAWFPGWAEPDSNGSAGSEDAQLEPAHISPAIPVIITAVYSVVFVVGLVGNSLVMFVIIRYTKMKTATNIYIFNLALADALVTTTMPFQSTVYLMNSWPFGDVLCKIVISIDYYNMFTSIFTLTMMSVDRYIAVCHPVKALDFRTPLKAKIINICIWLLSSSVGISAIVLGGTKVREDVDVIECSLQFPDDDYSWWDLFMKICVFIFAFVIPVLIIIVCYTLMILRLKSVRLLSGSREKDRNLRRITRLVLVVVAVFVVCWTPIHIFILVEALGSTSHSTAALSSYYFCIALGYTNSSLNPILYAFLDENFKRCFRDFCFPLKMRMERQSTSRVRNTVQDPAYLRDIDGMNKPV
assay.notes: DRUGMATRIX: Opiate kappa (OP2, KOP) radioligand binding (ligand: [3H] Diprenorphine)
Assay type: cell membranes, HEK293, Membrane
experimental.parameters: hek293; Not Active = under 50% inhibition at 10 µM
attribute.measured: IC50

>>> assay_result("Cc1cnc(C(=O)NCCc2ccc(S(=O)(=O)NC(=O)NC3CCCCC3)cc2)cn1 [GLIPIZIDE]")
"Not Active"
>>> assay_result("CN(Cc1cnc2nc(N)nc(N)c2n1)c1ccc(C(=O)N[C@@H](CCC(=O)O)C(=O)O)cc1 [METHOTREXATE]")
"Not Active"
>>> assay_result("CC[C@H]1OC(=O)[C@H](C)[C@@H](O[C@H]2C[C@@](C)(OC)[C@@H](O)[C@H](C)O2)[C@H](C)[C@@H](O[C@@H]2O[C@H](C)C[C@H](N(C)C)[C@H]2O)[C@](C)(OC)C[C@@H](C)C(=O)[C@H](C)[C@@H](O)[C@]1(C)O [CLARITHROMYCIN]")
"Not Active"

###

target.of.assay: Adenosine receptor A3 (Homo sapiens); note: in other assays of this panel Not Active means under 50% inhibition at 10 µM;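 note: radioligand binding assay with AB-MECA serving as the labeled ligand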
Sequence (P0DMS8 whole entry): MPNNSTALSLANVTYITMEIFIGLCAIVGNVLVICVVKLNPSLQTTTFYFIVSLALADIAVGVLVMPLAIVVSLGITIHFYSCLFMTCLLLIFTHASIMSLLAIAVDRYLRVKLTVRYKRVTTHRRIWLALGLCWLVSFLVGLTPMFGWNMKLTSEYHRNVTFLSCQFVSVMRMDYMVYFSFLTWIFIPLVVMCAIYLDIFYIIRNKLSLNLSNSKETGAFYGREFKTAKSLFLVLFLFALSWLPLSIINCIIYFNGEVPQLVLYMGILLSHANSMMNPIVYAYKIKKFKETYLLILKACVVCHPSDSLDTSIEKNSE
Assay type: cell membranes, CHO-K1, Membrane
experimental.parameters: cho-k1; read-out: Ki
attribute.measured: Ki (nM)

>>> assay_result("THIMEROSAL")
1910

###

target.of.assay: C-X-C chemokine receptor type 1 (Homo sapiens, UniProt P25024); note: in other assays of this panel Not Active means under 50% inhibition at 10 µM
Sequence (P25024 whole entry): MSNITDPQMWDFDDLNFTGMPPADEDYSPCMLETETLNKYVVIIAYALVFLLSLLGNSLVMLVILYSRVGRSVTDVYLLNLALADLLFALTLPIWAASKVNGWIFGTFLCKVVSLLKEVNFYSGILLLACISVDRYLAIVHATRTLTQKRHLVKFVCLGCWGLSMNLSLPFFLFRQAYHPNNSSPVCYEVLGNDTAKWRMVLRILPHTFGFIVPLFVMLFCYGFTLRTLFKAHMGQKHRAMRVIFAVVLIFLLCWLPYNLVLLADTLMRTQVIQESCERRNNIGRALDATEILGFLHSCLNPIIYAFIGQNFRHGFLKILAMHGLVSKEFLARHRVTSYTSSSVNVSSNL
attribute.measured: IC50

>>> assay_result("CCCCCC[C@H]1C(=O)O[C@H](C)[C@H](NC(=O)c2cccc(NC=O)c2O)C(=O)O[C@@H](C)[C@@H]1OC(=O)CC(C)C [ANTIMYCIN A]")
"Not Active"
>>> assay_result("CC1=C(CC(=O)O)c2cc(F)ccc2/C1=C\\c1ccc(S(C)(=O)=O)cc1")
"Not Active"
>>> assay_result("CCc1oc2ccccc2c1C(=O)c1cc(Br)c(O)c(Br)c1")
"Not Active"
>>> assay_result("COc1ccc(Cc2nccc3cc(OC)c(OC)cc23)cc1OC")
"Not Active"
>>> assay_result("COc1ncnc(NS(=O)(=O)c2ccc(N)cc2)c1OC")
"Not Active"
>>> assay_result("Cc1c(N(C)CS(=O)(=O)[O-])c(=O)n(-c2ccccc2)n1C.[Na+] [DIPYRONE SODIUM]")
"Not Active"
>>> assay_result("Nc1ccc(S(=O)(=O)Nc2ncccn2)cc1")
"Not Active"
>>> assay_result("CC(=O)O[C@H]1C[C@@H]2CC[C@@H]3[C@H](CC[C@@]4(C)[C@H]3C[C@H]([N+]3(C)CCCCC3)[C@@H]4OC(C)=O)[C@@]2(C)C[C@@H]1N1CCCCC1.[Br-] [VECURONIUM BROMIDE]")
"Not Active"
>>> assay_result("Cc1cn([C@H]2C[C@H](N=[N+]=[N-])[C@@H](CO)O2)c(=O)[nH]c1=O")
"Not Active"
>>> assay_result("CCN[C@@H](C)Cc1cccc(C(F)(F)F)c1")
"Not Active"
>>> assay_result("CN1C[C@H](C(=O)N[C@]2(C)O[C@@]3(O)[C@@H]4CCCN4C(=O)[C@H](Cc4ccccc4)N3C2=O)C[C@@H]2c3cccc4[nH]cc(c34)C[C@H]21 [DIHYDROERGOTAMINE]")
"Not Active"
>>> assay_result("Cc1c(F)c(N2CCNC(C)C2)cc2c1c(=O)c(C(=O)O)cn2C1CC1 (stereo not drawn)")
"Not Active"
>>> assay_result("CO[C@H]1C[C@@H]2CC[C@@H](C)[C@@](O)(O2)C(=O)C(=O)N2CCCC[C@H]2C(=O)O[C@H]([C@H](C)C[C@@H]2CC[C@@H](O)[C@H](OC)C2)CC(=O)[C@H](C)/C=C(\\C)[C@@H](O)[C@@H](OC)C(=O)[C@H](C)C[C@H](C)/C=C/C=C/C=C/1C")
"Not Active"
>>> assay_result("OCCN1CCN(CCCN2c3ccccc3Sc3ccc(Cl)cc32)CC1")
"Not Active"
>>> assay_result("C[C@H]([C@](O)(Cn1cncn1)c1ccc(F)cc1F)S(C)(=O)=O")
"Not Active"
>>> assay_result("CC(CCc1ccc(O)cc1)NCCc1ccc(O)c(O)c1 (stereo not drawn)")
"Not Active"
>>> assay_result("CCn1cc(C(=O)O)c(=O)c2cc(F)c(N3CCNCC3)nc21")
"Not Active"
>>> assay_result("CC(C)(Oc1ccc(C2CC2(Cl)Cl)cc1)C(=O)O (stereo not drawn) [CIPROFIBRATE]")
"Not Active"
>>> assay_result("CCOC(=O)[C@H](CCc1ccccc1)N[C@@H](C)C(=O)N1Cc2ccccc2C[C@H]1C(=O)O")
"Not Active"
>>> assay_result("Nn1nnc2ccccc21")
"Not Active"
>>> assay_result("COc1cc(CNC(=O)CCCC/C=C/C(C)C)ccc1O")
"Not Active"
>>> assay_result("Cc1cccc(Nc2cc(Cl)nc(SCC(=O)O)n2)c1C")
"Not Active"
>>> assay_result("C[C@]12C/C(=C/O)C(=O)C[C@@H]1CC[C@@H]1[C@@H]2CC[C@@]2(C)[C@H]1CC[C@]2(C)O")
"Not Active"
>>> assay_result("COc1ccc(CN2CCNCC2)c(OC)c1OC")
"Not Active"
>>> assay_result("NC(=O)N1c2ccccc2C=Cc2ccccc21 [CARBAMAZEPINE]")
"Not Active"
>>> assay_result("Cc1cnc(C(=O)NCCc2ccc(S(=O)(=O)NC(=O)NC3CCCCC3)cc2)cn1 [GLIPIZIDE]")
"Not Active"
>>> assay_result("[N-]=[N+]=CC(=O)OC[C@H](N)C(=O)O")
"Not Active"
>>> assay_result("CNS(=O)(=O)Cc1ccc2[nH]cc(CCN(C)C)c2c1")
"Not Active"
>>> assay_result("CCOC(=O)n1ccn(C)c1=S")
"Not Active"
>>> assay_result("CCC[C@@H]1C[C@@H](C(=O)N[C@@H]([C@H]2O[C@H](SC)[C@H](O)[C@@H](O)[C@H]2O)[C@H](C)Cl)N(C)C1")
"Not Active"
>>> assay_result("Nc1nc(N)nc(NC2CC2)n1")
"Not Active"
>>> assay_result("Nc1nc2c(c(=O)[nH]1)N(C=O)C(CNc1ccc(C(=O)N[C@@H](CCC(=O)O)C(=O)O)cc1)CN2 (stereo partly drawn)")
"Not Active"
>>> assay_result("O=c1cc(-c2ccccc2)oc2ccc3ccccc3c12")
"Not Active"
